Value source: the DeepSol protein solubility set

assay: soluble on expression in E. coli; label from the status in PepcDB or PDB records

residueCodes	soluble on expression in E. coli
MEQSFTADINEINITNGKLDFSDSSLTPKFSAGIYSLNGDITGLSSNEDSRAKIDLKGKVDKYAPVIIKGSVNPLSHDAFTDIDMLFNGIELTTFTPYSGKFAGYAIDKGKLSLGLNYKLSNNKLVAENNVTLDQLTLGEVVNSEEATSLPIKFALSLLKDSDGLEHHHHHH	soluble
MYIECEGILKRYFKDVPEIIKRACKFAREKLGEGSHGFSHTLRVLAIALHIGSKENADLEILALAALLHDIARPLEDKGVIRDHAIEGAKIAKEFLSNYEKVEEVAHAIASHRFSNDVEPRTLEAKILSDADKIDALGAIGIARVFIYSCEKERSIEDSIKHFEEKILKLKDLMYTKTGKEIAEKRHKVVKWYVETLKSELREFLYLEHHHHHH	soluble
NTKGIDEIKNLETDFNGRIGVYALDTGSGKSFSYRANERFPLCSSFKGFLAAAVLKGSQDNRLNLNQIVNYNTRSLEFHSPITTKYKDNGMSLGDMAAAALQYSDNGATNIILERYIGGPEGMTKFMRSIGDEDFRLDRWELDLNTAIPGDERDTSTPAAVAKSLKTLALGNILSEHEKETYQTWLKGNTTGAARIRASVPSDWVVGDKTGSCGAYGTANDYAVVWPKNRAPLIISVYTTKNEKEAKHEDKVIAEASRIAIDNLK	soluble

###

assay: soluble on expression in E. coli; label from the status in PepcDB or PDB records
readoutType: soluble on expression in E. coli

Example sequences with recorded soluble on expression in E. coli:
residueCodes	soluble on expression in E. coli
MGSDKIHHHHHHMELKLERHPANPILEPSPYFLWESRFVFNPAVVYDGELFHLLYRAQGEDMVSRIGYAVSTDGIHFNKFEKPVFAPKSDDELYGVEDPRITKIGDEYYMVYTAYSPRGVRIAMASTKNFITWKRYGVVIPEVDNKDAALFPEKINGKYVMFHRIPPDMWLAFSDDLVHWDNFVKIASPRPGMWDDLKIGVGAPPIKTEYGWLVLYHGVQNTGTSRPIYRLGFMLLDLEDPTKVIKRSKEPILEPEEDWEKFGGVPNVVFSDAMIEYNGYYYVYYGAADNCIALATIPVEKVMKWCRE	not soluble
NKDWRINGYVNFSRNENKITELPANMVQENYSPKNGAYAARAEVGRPIGSFYGYRYKGVYQNTDATYARDAEGNVMNDAKGRPIVMKNLTATCQPGDAMYEDINHDGVINQYDIVYLGNANPTLTGGAGLTVKYKQFSINTFFHGRFGQSVVNTARMNNESMHGNANQSTAVLRRWKNEGDITDIPRALYGEGFNYLGSDRFVEDTSFLRLKQLTLNYAFPKSICNKLGITSLTCFVTGYNLFTWSSYTGQDPEVNLPSRPTDLATDGATTPVSRRYTFGFNLSF	not soluble
AIALTYIILVLHLQNHVWEDVTVHNSSLPPLAIKHPECLGLLHQLERSTDVWIQHYCILKDGCLYFYASIRSTQASGGLYLQGYSVSEQTHGFEQPVIELKPSSEEFKTFYFCAENKTENQRWIAALKTSIKKWLPLDQAIQEFMSRPLEETRM	soluble
NKSYRSTEQITNFAKALLPDGDQIQAFTRKGDLPKVMIRYGEDAALSSLRSEVEHQLKATNTVAVLTKDLAESKQVYQYLKRYTVTTLMADSDRTMPQGVIVMPIYLAKGLEFDAVVAYDVSATNYPDADSVGILYTIASRAMHHLTLLSIGDVSPLIAQLDPTLFTIEHQVRV	not soluble
MSFSADALEGGLSSLKLAADKYRSILNDEKTGNIRWRYGGPPIFDTVNKLFEEERTHVQWRYDNPPDFNSVNQLFEEGQTKVWPEGSLEETVQNAIKSWEMEFSHKIRLQDFKTINPEKFKLFVNGREGLSAEETLRLGSYNALLKNSLPEEFQYYKPEEESFESSHDAFRSALPRGFAWEILSVYSGPPVIAFKFRHWGYFEGTFKGHAPTGEMVQFLGLGVLKVDESLRAEEIEIYYDPGELFGGLLKGPPISETKTTDSGDNTAEKQSCPFTH	soluble

IN: Give recorded soluble on expression in E. coli. `MAKKEEYVRKPDWLKIKLNTNETYTGLKKMMREKNLHTVCEEAKCPNIHECWAVRKTATFMILGDVCTRACRFCAVKTGLPNELDLQEPERVAESVEIMGLKHAVITAVARDDLKDGGAGVFAETVRAVRRRNPFCTIEVLPSDMMGNDDNLKTLMDARPNILNHNIETVRRLTPRVRARATYERSLEFLRRAKEMQPDIPTKSSLMIGLGETKDEIIETMDDLRANNVDIMTIGQYLQPTKKHLKVQKYYHPDEFAELKEIALSKGFSHCEAGPLVRSSYHADEQVNEAQVREEARKAAAKS`
OUT: not soluble

IN: Give recorded soluble on expression in E. coli. `MSLEQELKLLFLRAHQRALSSLQFTEEAVDFLISCADGDARRLLNLLEQTKTACLTIKTAVVDVELLHNVIVQNSRRFDKGGEAFYDQISALHKSVRGSNPDAALYWLCRMLDGGVDPYYLARRIIRMSWEDIGLADPKAIQIANDAAATYERLGSPEGELALAQAVIYLSVAAKSNAGYVAFNQAMEFIKRDKSREVPIHLRNAPTQLMKKLGYGHEYRYAHDEPHGYAAGECYLPEGMPEVNWYNPVQRGLETKIAEKLAFLRQLDKDVKKEGHHHHHH`
OUT: not soluble

IN: Give recorded soluble on expression in E. coli. `RQGELSIACLPVFSQSFLPLLLPPFLSRYPEVSLQIVPQESPLLEEWLSAQRHDLGLTETLHTPAGTERTPLLTLNEVCVLPAGHPLAAQATLTPADFQGENYISLSRTDSYRQLLDALFLEHQVKRRMVVETHSAASICAMVRAGA`
OUT: not soluble

IN: Give recorded soluble on expression in E. coli. `MRAVRLVEIGKPLSLQEIGVPKPKGPQVLIKVEAAGVCHSDVHMRQGRFGNLRIVEDLGVKLPVTLGHEIAGKIEEVGDEVVGYSKGDLVAVNPLQGEGNCYYCRIGEEHLCDSPRWLGINFDGAYAEYVIVPHYKYMYKLRRLNAVEAAPLTCSGITTYRAVRKASLDPTKTLLVVGAGGGLGTMAVQIAKAVSGATIIGVDVREEAVEAAKRAGADYVINASMQDPLAEIRRITESKGVDAVIDLNYSEKTLSVYPKALAKQGKYVMVGLFGADLHYHAPLITLSEIQFVGSLVGNQSDFLGIMRLAEAGKVKPMITKTMKLEEANEAIDNLENFKAIGRQVLIP`
OUT: soluble

IN: Give recorded soluble on expression in E. coli. `MSRYNWNVPILEVLKEAVMVKKLNKIAVVGTPCVINAVYQMMATNNDLVEPFKKAIRLKISLFCFETFDYDKMLKKLKEVEVNPWDIKKMEIDKGKLIVSTIHGNVFNFKIDEMDEYVRKGCKVCRDFTGISSDISVGNVGTPEGYSTVLVRNKWGKGFFDRAVINGYVSVEGEASIDPVISLSKKKMERKDIEFLEHHHHHH`
OUT: soluble

IN: Give recorded soluble on expression in E. coli. `GSMTGKSVKDVDRYQAVLANLLLEEDNKFCADCQSKGPRWASWNIGVFICIRCAGIHRNLGVHISRVKSVNLDQWTQEQIQCMQEMGNGKANRLYEAYLPETFRRPQIDPAVEGFIRDKYEKKKYMDRSLDINA`
OUT: soluble

IN: Give recorded soluble on expression in E. coli. `MTGPTTDADAAVPRRVLIAEDEALIRMDLAEMLREEGYEIVGEAGDGQEAVELAELHKPDLVIMDVKMPRRDGIDAASEIASKRIAPIVVLTAFSQRDLVERARDAGAMAYLVKPFSISDLIPAIELAVSRFREITALEGEVATLSERLETRKLVERAKGLLQTKHGMTEPDAFKWIQRAAMDRRTTMKRVAEVVLETLGTPKDT`
OUT: soluble

###

experiment: soluble on expression in E. coli; label from the status in PepcDB or PDB records
readoutType: soluble on expression in E. coli

residueCodes	reportedValue
MAATNHAQAIKKDTKDFITTALLQMLAKEKLQALTVSQICKRAGVSRMAFYRNFNGLEQILYEYYQPKIGAMFDTIRENPQFSAKFDSQLKFFNTFGDDIILSIDRGFEPIIQQIFKEEIEKFYFKDNDEHWTTFMSAGVYAIWRKWLLDGRQKPLKEIMDFFKQFDMIKGNV	not soluble
MFERNREATMIFNIQRYSTHDGPGIRTVVFLKGCSLGCRWCQNPESRARTQDLLYDPRLCLEGCKLCAKTAPEVIERALNGLLIHREKLTPEHFTALTDCCPTQALTVCGEVKSVEEIMATVLRDKPFYDRSGGGLTLSGGEPFMQPEMATALLQASHEAGIHTAVETCLHVPWKYIAPSLPYIDLFLADLKHVADAPFKQWTDGNAARVLDNLKKLAAAGKKIIIRVPLIQGFNADETSVKAITDFAADELHVSEIHFLPYHTLGINKYHLLNLPYDAPEKPLDAPELLDFAQQYACQKGLTATLRG	not soluble
